Target: equine FcRn (large alpha subunit p51) / equine beta-2-microglobulin complex, biotinylated (equine) (UniProt P30441)
Experiment: SPR (Biacore), pH 6
Property Label: Kd (nM)
Give the value, in units of nM, as a plain number.

Form field: reported Kd of equine IgG4 D312Q (antibody, part only; not given: variable domains, not shown: another chain or arm of the molecule) constant: ASTTAPKVFPLASHSAATSGSTVALGCLVSSYFPEPVTVSWNSGALTSGVHTFPSVLQSSGLYSLSSMVTVPASSLKSQTYICNVAHPASSTKVDKKIVIKECNGGCPAECLQVGPSVFIFPPKPKDVLMISRTPTVTCVVVDVGHDFPDVQFNWYVDGVETHTATTEPKQEQFNSTYRVVSVLPIQHKQWLSGKEFKCKVNNKALPAPVERTISKPTGQPREPQVYVLAPHRDELSKNKVSVTCLVKDFYPTDIDIEWKSNGQPEPETKYSTTPAQLDSDGSYFLYSKLTVETNRWQQGTTFTCAVMHEALHNHYTEKSVSKSPGK 28.1

Proceed to equine IgG1 N434A (antibody, part only; not given: Variable domains, not shown: another chain or arm of the molecule) constant: ASTTAPKVFALAPGCGTTSDSTVALGCLVSGYFPEPVKVSWNSGSLTSGVHTFPSVLQSSGFYSLSSMVTVPASTWTSETYICNVVHAASNFKVDKRIEPIPDNHQKVCDMSKCPKCPAPELLGGPSVFIFPPNPKDTLMITRTPEVTCVVVDVSQENPDVKFNWYMDGVEVRTATTRPKEEQFNSTYRVVSVLRIQHQDWLSGKEFKCKVNNQALPQPIERTITKTKGRSQEPQVYVLAPHPDELSKSKVSVTCLVKDFYPPEINIEWQSNGQPELETKYSTTQAQQDSDGSYFLYSKLSVDRNRWQQGTTFTCGVMHEALHAHYTQKNVSKNPGK 6.54

Data origin: patent US20260070987A1
